testProtocol: Phase 1 food-effect crossover study: plasma PK after single 300 mg oral dose
Assay type: in vivo, human
conditionNotes: human, plasma, po, 300 mg, Treatment D: high-fat meal incl. dairy 2 h before dosing, read-out: Cmax, Mean (Coefficient of Variation)
measuredMetric: Cmax (ng/mL)
Quick reminder: number only, in ng/mL, skip the unit.

# get_value(readout='Cmax', item= CN(C)c1cc(CNCC(C)(C)C)c(O)c2c1C[C@H]1C[C@H]3[C@H](N(C)C)C(O)=C(C(N)=O)C(=O)[C@@]3(O)C(O)=C1C2=O ) 300

====

testProtocol: Phase 1 multiple oral dose study: urine pharmacokinetics
Type: in vivo, human
conditionNotes: human, in vivo, 450 mg; Day 1 (n = 3); read-out: CLr, Mean (CV) (converted)
measuredMetric: CL renal (mL/min)
Express your answer in mL/min, writing the number without its unit.

For CN(C)c1cc(CNCC(C)(C)C)c(O)c2c1C[C@H]1C[C@H]3[C@H](N(C)C)C(O)=C(C(N)=O)C(=O)[C@@]3(O)C(O)=C1C2=O [Omadacycline] , what is its reported CL renal? 46.7

====

testProtocol: Phase 1 multiple oral dose (300, 450, 600 mg once daily x 5 days) crossover study: plasma pharmacokinetics
conditionNotes: human, in vivo, po, 600 mg, Mean T1/2, 600 mg oral once daily; Day 5
Source text: Thus the study was designed as a Phase 1, randomized, double-blind, 3-period, crossover study in healthy adult subjects. The study consisted of a screening period (Day −21 through Day −2), 3 baseline periods (Day −1 of each period), 3 treatment periods (Day 1 through Day 6 of each period), and a study completion visit (within 6 to 10 days after the last dose of study drug in Period 3). There was a washout of at least 5 days between the last dose in one period and the first dose in the next period. […]
measuredMetric: half-life

Quick one: half-life for CN(C)c1cc(CNCC(C)(C)C)c(O)c2c1C[C@H]1C[C@H]3[C@H](N(C)C)C(O)=C(C(N)=O)C(=O)[C@@]3(O)C(O)=C1C2=O ? 16.8 h

====

testProtocol: Phase 1 food-effect crossover study: plasma PK after single 300 mg oral dose
Format: in vivo, human
conditionNotes: human, plasma, po, 300 mg, Treatment C: high-fat nondairy meal 2 h before dosing, read-out: Cmax, Geometric LS Mean
measuredMetric: Cmax (ng/mL)
Answer with a number only, understood to be in ng/mL.

Name the reported Cmax value associated with the molecule CN(C)c1cc(CNCC(C)(C)C)c(O)c2c1C[C@H]1C[C@H]3[C@H](N(C)C)C(O)=C(C(N)=O)C(=O)[C@@]3(O)C(O)=C1C2=O 390

====

testProtocol: Phase 1 multiple oral dose study: urine pharmacokinetics
Type: in vivo, human
conditionNotes: human, in vivo, 450 mg; Day 5 (n = 5); read-out: CLr, Mean (CV) (converted)
measuredMetric: CL renal (mL/min)
Note: unit mL/min is implicit; provide only the numeric part.

# lookup: CL renal of CN(C)c1cc(CNCC(C)(C)C)c(O)c2c1C[C@H]1C[C@H]3[C@H](N(C)C)C(O)=C(C(N)=O)C(=O)[C@@]3(O)C(O)=C1C2=O 39.7

====

testProtocol: Phase 1 multiple oral dose (300, 450, 600 mg once daily x 5 days) crossover study: plasma pharmacokinetics
conditionNotes: human, in vivo, po, 300 mg, Mean T1/2, 300 mg oral once daily; Day 5
measuredMetric: half-life

Field request: half-life | item: CN(C)c1cc(CNCC(C)(C)C)c(O)c2c1C[C@H]1C[C@H]3[C@H](N(C)C)C(O)=C(C(N)=O)C(=O)[C@@]3(O)C(O)=C1C2=O 15.5 h

Hey, just so you know, these numbers are from patent US10111890B2.
